- Test system: HeLa Kyoto
- ASSAY_NAME: melting temperature (median over replicates), in situ; higher = more thermally stable
- CONDITION_NOTES: cell cycle stage: G1/S
ENDPOINT_NAME: melting temperature (°C)

MSGNGNAAATAEENSPKMRVIRVGTRKSQLARIQTDSVVATLKASYPGLQFEIIAMSTTGDKILDTALSKIGEKSLFTKELEHALEKNEVDLVVHSLKDLPTVLPPGFTIGAICKRENPHDAVVFHPKFVGKTLETLPEKSVVGTSSLRRAAQLQRKFPHLEFRSIRGNLNTRLRKLDEQQEFSAIILATAGLQRMGWHNRVGQILHPEECMYAVGQGALGVEVRAKDQDILDLVGVLHDPETLLRCIAERAFLRHLEGGCSVPVAVHTAMKDGQLYLTGGVWSLDGSDSIQETMQATIHVPAQHEDGPEDDPQLVGITARNIPRGPQLAAQNLGISLANLLLSKGAKNILDVARQLNDAH [HMBS] :: 57.6
MSLLRSLRVFLVARTGSYPAGSLLRQSPQPRHTFYAGPRLSASASSKELLMKLRRKTGYSFVNCKKALETCGGDLKQAEIWLHKEAQKEGWSKAAKLQGRKTKEGLIGLLQEGNTTVLVEVNCETDFVSRNLKFQLLVQQVALGTMMHCQTLKDQPSAYSKGFLNSSELSGLPAGPDREGSLKDQLALAIGKLGENMILKRAAWVKVPSGFYVGSYVHGAMQSPSLHKLVLGKYGALVICETSEQKTNLEDVGRRLGQHVVGMAPLSVGSLDDEPGGEAETKMLSQPYLLDPSITLGQYVQPQGVSVVDFVRFECGEGEEAAETE [TSFM] :: 47.6
MAVFADLDLRAGSDLKALRGLVETAAHLGYSVVAINHIVDFKEKKQEIEKPVAVSELFTTLPIVQGKSRPIKILTRLTIIVSDPSHCNVLRATSSRARLYDVVAVFPKTEKLFHIACTHLDVDLVCITVTEKLPFYFKRPPINVAIDRGLAFELVYSPAIKDSTMRRYTISSALNLMQICKGKNVIISSAAERPLEIRGPYDVANLGLLFGLSESDAKAAVSTNCRAALLHGETRKTAFGIISTVKKPRPSEGDEDCLPASKKAKCEG [RPP30] :: 55.3
MQNEPLTPGYHGFPARDSQGNQEPTTTPDAMVQPFTTIPFPPPPQNGIPTEYGVPHTQDYAGQTGEHNLTLYGSTQAHGEQSSNSPSTQNGSLTTEGGAQTDGQQSQTQSSENSESKSTPKRLHVSNIPFRFRDPDLRQMFGQFGKILDVEIIFNERGSKGFGFVTFENSADADRAREKLHGTVVEGRKIEVNNATARVMTNKKMVTPYANGWKLSPVVGAVYGPELYAASSFQADVSLGNDAAVPLSGRGGINTYIPLISLPLVPGFPYPTAATTAAAFRGAHLRGRGRTVYGAVRAVPPTAIPAYPGVVYQDGFYGADLYGGYAAYRYAQPATATAATAAAAAAAAYSDGYGRVYTADPYHALAPAASYGVGAVASLYRGGYSRFAPY [RBFOX2] :: 49.8
MFVARSIAADHKDLIHDVSFDFHGRRMATCSSDQSVKVWDKSESGDWHCTASWKTHSGSVWRVTWAHPEFGQVLASCSFDRTAAVWEEIVGESNDKLRGQSHWVKRTTLVDSRTSVTDVKFAPKHMGLMLATCSADGIVRIYEAPDVMNLSQWSLQHEISCKLSCSCISWNPSSSRAHSPMIAVGSDDSSPNAMAKVQIFEYNENTRKYAKAETLMTVTDPVHDIAFAPNLGRSFHILAIATKDVRIFTLKPVRKELTSSGGPTKFEIHIVAQFDNHNSQVWRVSWNITGTVLASSGDDGCVRLWKANYMDNWKCTGILKGNGSPVNGSSQQGTSNPSLGSTIPSLQNSLNGSSAGRKHS [SEH1L] :: 54.8
MASRGATRPNGPNTGNKICQFKLVLLGESAVGKSSLVLRFVKGQFHEFQESTIGAAFLTQTVCLDDTTVKFEIWDTAGQERYHSLAPMYYRGAQAAIVVYDITNEESFARAKNWVKELQRQASPNIVIALSGNKADLANKRAVDFQEAQSYADDNSLLFMETSAKTSMNVNEIFMAIAKKLPKNEPQNPGANSARGRGVDLTEPTQPTRNQCCSN [RAB5A] :: 57.3
MNAARTGYRVFSANSTAACTELAKRITERLGAELGKSVVYQETNGETRVEIKESVRGQDIFIIQTIPRDVNTAVMELLIMAYALKTACARNIIGVIPYFPYSKQSKMRKRGSIVCKLLASMLAKAGLTHIITMDLHQKEIQGFFSFPVDNLRASPFLLQYIQEEIPNYRNAVIVAKSPDAAKRAQSYAERLRLGLAVIHGEAQCTELDMDDGRHSPPMVKNATVHPGLELPLMMAKEKPPITVVGDVGGRIAIIVDDIIDDVESFVAAAEILKERGAYKIYVMATHGILSAEAPRLIEESSVDEVVVTNTVPHEVQKLQCPKIKTVDISLILSEAIRRIHNGESMAYLFRNITVDD [PRPSAP1] :: 55.6
MLQGHSSVFQALLGTFFTWGMTAAGAALVFVFSSGQRRILDGSLGFAAGVMLAASYWSLLAPAVEMATSSGGFGAFAFFPVAVGFTLGAAFVYLADLLMPHLGAAEDPQTTLALNFGSTLMKKKSDPEGPALLFPESELSIRIGRAGLLSDKSENGEAYQRKKAAATGLPEGPAVPVPSRGNLAQPGGSSWRRIALLILAITIHNVPEGLAVGVGFGAIEKTASATFESARNLAIGIGIQNFPEGLAVSLPLRGAGFSTWRAFWYGQLSGMVEPLAGVFGAFAVVLAEPILPYALAFAAGAMVYVVMDDIIPEAQISGNGKLASWASILGFVVMMSLDVGLG [SLC39A11] :: 56
MAARTVIIDHGSGFLKAGTAGWNEPQMVFPNIVNYLPCKENPGPSYARRRVSLGIDICHPDTFSYPIERGRILNWEGVQYLWSFVLENHRREQEVPPVIITETPLREPADRKKMLEILFELLHVPSVLLADQLQMSLYASGLLTGVVVDSGYGLTRVQPFHQGRPLPASGKTLEFAGQDLSAYLLKSLFKEDCDRRCLFQLETVAVTQMNKCYVPQNLGEALDFRERQQSALDESNTYQLPDGSRVELTPMQRVAPEMFFSPQVFEQPGPSIPRAIVESVESCEISLRPLLVSHVMACGGNTLYPGFTKRLFRELMGDHVSSTKATVWEGSNRNFSVWLGASVVAHLSTYQSEWMSREEYGEHMRM [ACTL8] :: 52.8

---

- Tested on: HeLa Kyoto
- ASSAY_NAME: solubility change mitosis vs G1/S (difference of NP-40 vs SDS log2 ratios) (log2 ratio difference); higher = more soluble in mitosis
Rule: solubility change mitosis (log2) under -0.03 gives Not met, otherwise Met.

MEDERSFSDICGGRLALQRRYYSPSCREFCLSCPRLSLRSLTAVTCTVWLAAYGLFTLCENSMILSAAIFITLLGLLGYLHFVKIDQETLLIIDSLGIQMTSSYASGKESTTFIEMGKVKDIVINEAIYMQKVIYYLCILLKDPVEPHGISQVVPVFQSAKPRLDCLIEVYRSCQEILAHQKATSTSP [PIGH] :: Met
MVLESTMVCVDNSEYMRNGDFLPTRLQAQQDAVNIVCHSKTRSNPENNVGLITLANDCEVLTTLTPDTGRILSKLHTVQPKGKITFCTGIRVAHLALKHRQGKNHKMRIIAFVGSPVEDNEKDLVKLAKRLKKEKVNVDIINFGEEEVNTEKLTAFVNTLNGKDGTGSHLVTVPPGPSLADALISSPILAGEGGAMLGLGASDFEFGVDPSADPELALALRVSMEEQRQRQEEEARRAAAASAAEAGIATTGTEDSDDALLKMTISQQEFGRTGLPDLSSMTEEEQIAYAMQMSLQGAEFGQAESADIDASSAMDTSEPAKEEDDYDVMQDPEFLQSVLENLPGVDPNNEAIRNAMGSLASQATKDGKKDKKEEDKK [PSMD4] :: Not met
MSLLRSLRVFLVARTGSYPAGSLLRQSPQPRHTFYAGPRLSASASSKELLMKLRRKTGYSFVNCKKALETCGGDLKQAEIWLHKEAQKEGWSKAAKLQGRKTKEGLIGLLQEGNTTVLVEVNCETDFVSRNLKFQLLVQQVALGTMMHCQTLKDQPSAYSKGFLNSSELSGLPAGPDREGSLKDQLALAIGKLGENMILKRAAWVKVPSGFYVGSYVHGAMQSPSLHKLVLGKYGALVICETSEQKTNLEDVGRRLGQHVVGMAPLSVGSLDDEPGGEAETKMLSQPYLLDPSITLGQYVQPQGVSVVDFVRFECGEGEEAAETE [TSFM] :: Met
MAAAVPQRAWTVEQLRSEQLPKKDIIKFLQEHGSDSFLAEHKLLGNIKNVAKTANKDHLVTAYNHLFETKRFKGTESISKVSEQVKNVKLNEDKPKETKSEETLDEGPPKYTKSVLKKGDKTNFPKKGDVVHCWYTGTLQDGTVFDTNIQTSAKKKKNAKPLSFKVGVGKVIRGWDEALLTMSKGEKARLEIEPEWAYGKKGQPDAKIPPNAKLTFEVELVDID [FKBP3] :: Met
MEPGPDGPAASGPAAIREGWFRETCSLWPGQALSLQVEQLLHHRRSRYQDILVFRSKTYGNVLVLDGVIQCTERDEFSYQEMIANLPLCSHPNPRKVLIIGGGDGGVLREVVKHPSVESVVQCEIDEDVIQVSKKFLPGMAIGYSSSKLTLHVGDGFEFMKQNQDAFDVIITDSSDPMGPAESLFKESYYQLMKTALKEDGVLCCQGECQWLHLDLIKEMRQFCQSLFPVVAYAYCTIPTYPSGQIGFMLCSKNPSTNFQEPVQPLTQQQVAQMQLKYYNSDVHRAAFVLPEFARKALNDVS [SRM] :: Not met
